Origin of values: patent US20250179088A9

- System: PBMCs
- method: PBMC assay, IL-6 release (HTRF)
- Format: cell-based
- test_parameters: PBMCs from healthy donors, overnight, IL-6 induction by HTRF, average of quadruplicate
- Method: Whole peripheral blood was obtained from healthy donors. PBMCs were isolated from peripheral blood by density gradient centrifugation. […] The plasma layer containing PBMCs was poured into a new tube and washed twice. Isolated PBMCs were either used fresh or thawed from previously frozen. 1×10^5 PBMCs were cultured with titrating concentrations of compounds of Formula I overnight followed by assaying for cytokines by homogeneous time resolved fluorescence (HTRF).
Entries and their EC50
A number alone suffices; assume nM.

CCCCc1nc2c(N)nc3ccsc3c2n1Cc1nc(CNCc2ccc(CO)cc2)cs1	500
CCCCc1nc2c(N)nc3ccsc3c2n1CCCCCNCc1ccc(CO)cc1	76

// moving on: another record for EC50
Return the recorded EC50 value; entry: CCCCc1nc2c(N)nc3ccsc3c2n1Cc1ccc(CN2CCCCC2)cc1
20

###

- test_target: TLR7 (Homo sapiens, UniProt Q9NYK1)
- Sequence (Q9NYK1 27-1049): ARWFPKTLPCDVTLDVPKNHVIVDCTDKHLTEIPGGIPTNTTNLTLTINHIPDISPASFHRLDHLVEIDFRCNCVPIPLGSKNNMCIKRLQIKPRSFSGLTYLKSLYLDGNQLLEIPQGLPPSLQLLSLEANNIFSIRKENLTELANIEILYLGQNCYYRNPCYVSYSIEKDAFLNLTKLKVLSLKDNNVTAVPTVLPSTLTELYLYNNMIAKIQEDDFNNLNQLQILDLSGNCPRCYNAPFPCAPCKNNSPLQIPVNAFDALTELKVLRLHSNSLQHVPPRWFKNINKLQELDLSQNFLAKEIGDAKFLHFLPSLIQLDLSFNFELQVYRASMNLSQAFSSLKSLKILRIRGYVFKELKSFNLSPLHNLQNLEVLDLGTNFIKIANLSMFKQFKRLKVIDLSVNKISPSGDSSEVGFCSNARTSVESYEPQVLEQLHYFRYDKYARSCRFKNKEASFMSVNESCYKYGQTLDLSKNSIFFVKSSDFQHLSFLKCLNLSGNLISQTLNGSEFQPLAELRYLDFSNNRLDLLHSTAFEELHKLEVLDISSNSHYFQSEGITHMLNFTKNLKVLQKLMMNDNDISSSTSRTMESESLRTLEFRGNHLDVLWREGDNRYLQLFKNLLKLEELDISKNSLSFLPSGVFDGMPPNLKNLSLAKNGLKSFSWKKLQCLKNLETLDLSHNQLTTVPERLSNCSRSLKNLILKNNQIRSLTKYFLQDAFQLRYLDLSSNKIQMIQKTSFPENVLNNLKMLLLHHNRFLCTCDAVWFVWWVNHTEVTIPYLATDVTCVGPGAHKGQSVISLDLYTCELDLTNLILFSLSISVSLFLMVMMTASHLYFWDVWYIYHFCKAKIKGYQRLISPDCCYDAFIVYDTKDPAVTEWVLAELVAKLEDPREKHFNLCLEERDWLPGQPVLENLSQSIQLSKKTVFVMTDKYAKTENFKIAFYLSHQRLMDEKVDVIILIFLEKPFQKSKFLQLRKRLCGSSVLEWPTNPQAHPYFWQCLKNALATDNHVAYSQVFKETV
- method: Reporter gene assay, HEK-Blue TLR7 reporter cells (SEAP)
Entries and their EC50
A number alone suffices; assume nM.

CCCCc1nc2c(N)nc3ccsc3c2n1Cc1ccc(CNCCCCNC(=O)OCc2ccccc2)cc1	89

Return the recorded EC50 value; entry: CCCCc1nc2c(N)nc3ccsc3c2n1Cc1ccc(CN(CCN(CCCC)CCCC)CCN(CCCC)CCCC)cc1
67

Return the recorded EC50 value; entry: CCCCc1nc2c(N)nc3ccsc3c2n1Cc1ccc(CN2CCN(C(=O)OC(C)(C)C)CC2)cc1
85

Return the recorded EC50 value; entry: CCCCc1nc2c(N)nc3ccsc3c2n1Cc1ccc(CN[C@H](C(=O)O)[C@@H](C)O)cc1
159

Return the recorded EC50 value; entry: CCCCc1nc2c(N)nc3ccsc3c2n1Cc1cccc(CNCc2cc[nH]c2)c1
63
